Cited source for all entries: patent US20220306762A1

Molecular target: T1, His-tagged cynomolgus monkey CD38 (ACRO Biosystems cat #CD8-05223) (cynomolgus monkey, UniProt Q5VAN0 43-301)
T1 construct: bought recombinant protein with His tag
Assay: SPR, captured scFv-Fc, His-CD38 analyte;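 further: SPR on a Carterra LSA, scFv-Fc captured by anti-human Fc on HC30M chip, His-tagged CD38 (human, mouse, cynomolgus) flowed as analyte in eight 1:2 steps from 400 nM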
Recorded measurements of Kd, one per entry
readout-type: Kd (nM)

binder	reading-unit	measured-number
40566p1.B3 (scFv, V domains shown, tested as scFv-Fc supernatant) VH: DVQLVESGGGVVRPGESLRLSCAASGFTFDNYDMTWVRQAPGEGLEWVSFISSRGTFTYYTDSVRGRFTISRDNSKNTLYLEMNSLRAEDTAIYYCAKDSGEYYFFDYWGLGTLVTVSS VL: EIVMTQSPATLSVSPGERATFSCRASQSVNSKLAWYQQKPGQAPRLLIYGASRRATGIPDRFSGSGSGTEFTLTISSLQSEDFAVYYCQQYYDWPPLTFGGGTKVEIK	nM	5.68
40617p1.2.H1 (scFv, V domains shown, tested as scFv-Fc supernatant) VH: EVQLLESGGGLVQPGGSLRLSCAASGFTFTNYWMTWVRQAPGKGLEWVSAISSYGGNYMYYADSVKGRFTISRDNSENTLYLQMNSLRAEDTAVYYCAKDWDDGMDVWGQGTTVTVSS VL: EIVMTQSPAVLSVSPGERATLSCRASQTVGSKLAWYQQKPGQAPRLLIYGVSTRAAGIPDRFSGSGSGTDFTLTISSLQSEDFAVYYCQQYYDLPPYSFGGGTKVEIK	nM	30.6
40566p1.B11 (scFv, V domains shown, tested as scFv-Fc supernatant) VH: DVQLVESGGGLVRPGESLRLSCAASGFTFDNYDMTWVRQAPGEGLEWVSFISSRGTFTYYTDSVKGRFTISRDNSKNTLYLQMNSLRAEDTAIYYCAKDSGEYYFFDYWGLGTLVTVSS VL: EIVMTQSPATLSVSPGERATFSCRASQSVNSKLAWYQQKPGQAPRLLIYGASRRATGIPDRFSESGSGTEFTLTISSLQSEDFAVYYCQQYHDWPPLTFGGGTKVEIK	nM	549
